# Tested on: 242566-281-R-J2-PDC complex spheroid viability
# EXPERIMENT_SUMMARY: Anticancer human tumor 242566-281-R-J2-PDC patient-derived pancreatic carcinoma cell line growth inhibition [RAS]
# REPORTED_CONDITIONS: second compound 0.00949 µM; first compound 0.0316 µM; active compounds read low
Could you please mark rule met for values of viability, T/C below 40% and rule not met for values at or above it?

Look over these answered cases.
- COMPOUND: "C=CC(=O)N1CCN(c2nc(OCC3CCCN3C)nc3c(F)c(-c4nc(N)cc(C)c4C(F)(F)F)c(Cl)cc23)C(C)C1 (stereo not drawn) + CCn1c(-c2cccnc2C(C)OC)c2c3cc(ccc31)N1CCOC(CC(NC(=O)C(C(C)C)N(C)C(=O)C3(F)CCN(C(=O)C#CC(C)(C)N(C)C)CC3)C(=O)N3CCCC(N3)C(=O)OCC(C)(C)C2)C1"
  ASSIGNED_CATEGORY: "rule not met"
- COMPOUND: "CC(Nc1ccc2c(c1)OCCn1cc(N3C(=O)OCC3C(F)F)nc1-2)C(N)=O (stereo not drawn) + CCn1c(-c2cccnc2C(C)OC)c2c3cc(ccc31)N1CCOC(CC(NC(=O)C(C(C)C)N(C)C(=O)C3(F)CCN(C(=O)C#CC(C)(C)N(C)C)CC3)C(=O)N3CCCC(N3)C(=O)OCC(C)(C)C2)C1"
  ASSIGNED_CATEGORY: "rule not met"
- COMPOUND: "Cc1nc(N2CCC3(CC2)COC(C)C3N)c(CO)nc1Sc1ccnc(N)c1Cl (stereo not drawn) + CCn1c(-c2cc(N3CCN(C)CC3)cnc2C(C)OC)c2c3cc(ccc31)-c1csc(n1)CC(NC(=O)C1CC1C)C(=O)N1CCCC(N1)C(=O)OCC(C)(C)C2"
  ASSIGNED_CATEGORY: "rule not met"
- COMPOUND: "CC(C)NCC(C(=O)N1CCN(c2ncnc3c2C(C)CC3O)CC1)c1ccc(Cl)cc1 (stereo not drawn) + CCn1c(-c2cc(N3CCN(C)CC3)cnc2C(C)OC)c2c3cc(ccc31)-c1csc(n1)CC(NC(=O)C1CC1C)C(=O)N1CCCC(N1)C(=O)OCC(C)(C)C2"
  ASSIGNED_CATEGORY: "rule not met"
- COMPOUND: "C=CC(=O)Nc1cc(Nc2nccc(-c3cn(C)c4ccccc34)n2)c(OC)cc1N(C)CCN(C)C + CCn1c(-c2cccnc2C(C)OC)c2c3cc(ccc31)N1CCOC(CC(NC(=O)C(C(C)C)N(C)C(=O)C3(F)CCN(C(=O)C#CC(C)(C)N(C)C)CC3)C(=O)N3CCCC(N3)C(=O)OCC(C)(C)C2)C1"
  ASSIGNED_CATEGORY: "rule not met"

Please find the next compound below.
Q. # TODO verify viability, T/C < 40% strictly for this compound: C=CC(=O)N1CCN(c2nc(OCC3CCCN3C)nc3c(F)c(-c4nc(N)cc(C)c4C(F)(F)F)c(Cl)cc23)C(C)C1 (stereo not drawn) + CCn1c(-c2cc(N3CCN(C)CC3)cnc2C(C)OC)c2c3cc(ccc31)-c1csc(n1)CC(NC(=O)C1CC1C)C(=O)N1CCCC(N1)C(=O)OCC(C)(C)C2
A. rule not met

* * *

In this section we review reported viability, T/C values for a set of compounds.
# System: 242566-281-R-J2-PDC complex spheroid viability
# EXPERIMENT_SUMMARY: Anticancer human tumor 242566-281-R-J2-PDC cell line growth inhibition [RAS];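 also: spheroids exposed to compound for 7 days before readout; 100% = DMSO vehicle control wells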
# REPORTED_CONDITIONS: second compound 0.03 µM; first compound 0.03 µM; active compounds read low
Give your result in % as a bare value.

A selection of reference data follows.
- COMPOUND: "CC1(C)CCC(Nc2ncc(C(F)(F)F)c(-c3c[nH]c4c(P(C)(C)=O)c(C#N)ccc34)n2)CN1 (centres undefined) + CCn1c(-c2cccnc2C(C)OC)c2c3cc(ccc31)N1CCOC(CC(NC(=O)C(C(C)C)N(C)C(=O)C3(F)CCN(C(=O)C#CC(C)(C)N(C)C)CC3)C(=O)N3CCCC(N3)C(=O)OCC(C)(C)C2)C1"
  UNIT_OF_MEASURE: "%"
  viability, T/C: 91.1
- COMPOUND: "CCc1c2c(nc3ccc(O)cc13)-c1cc3c(c(=O)n1C2)COC(=O)[C@]3(O)CC + CCn1c(-c2cc(N3CCN(C)CC3)cnc2C(C)OC)c2c3cc(ccc31)-c1csc(n1)CC(NC(=O)C1CC1C)C(=O)N1CCCC(N1)C(=O)OCC(C)(C)C2"
  UNIT_OF_MEASURE: "%"
  viability, T/C: 21.1
- COMPOUND: "CCc1c2c(nc3ccc(O)cc13)-c1cc3c(c(=O)n1C2)COC(=O)[C@]3(O)CC + CCn1c(-c2cccnc2C(C)OC)c2c3cc(ccc31)N1CCOC(CC(NC(=O)C(C(C)C)N(C)C(=O)C3(F)CCN(C(=O)C#CC(C)(C)N(C)C)CC3)C(=O)N3CCCC(N3)C(=O)OCC(C)(C)C2)C1"
  UNIT_OF_MEASURE: "%"
  viability, T/C: 38.3

Note: attention shifts to another entry.
Q. Recorded viability, T/C for CC1(C)CCC(Nc2ncc(C(F)(F)F)c(-c3c[nH]c4c(P(C)(C)=O)c(C#N)ccc34)n2)CN1 (centres undefined) + CCn1c(-c2cc(N3CCN(C)CC3)cnc2C(C)OC)c2c3cc(ccc31)-c1csc(n1)CC(NC(=O)C1CC1C)C(=O)N1CCCC(N1)C(=O)OCC(C)(C)C2 , please?
A. 27.8

* * *

# Test system: 242566-281-R-J2-PDC complex spheroid viability
# EXPERIMENT_SUMMARY: Anticancer human tumor 242566-281-R-J2-PDC cell line growth inhibition [RAS];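 also: spheroids exposed to compound for 7 days before readout; 100% = DMSO vehicle control wells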
# REPORTED_CONDITIONS: second compound 0.3 µM; first compound 0.1 µM; active compounds read low
READOUT_LABEL: viability, T/C (%)
Write the number in % without appending the unit.

Q. Consider the molecule shown here: CC(C)n1nc(-c2ccc3oc(N)nc3c2)c2c(N)ncnc21 + CCn1c(-c2cc(N3CCN(C)CC3)cnc2C(C)OC)c2c3cc(ccc31)-c1csc(n1)CC(NC(=O)C1CC1C)C(=O)N1CCCC(N1)C(=O)OCC(C)(C)C2 What is its recorded viability, T/C?
A. 5.69

Q. Fill in: viability, T/C of CC(C)n1nc(-c2ccc3oc(N)nc3c2)c2c(N)ncnc21 + CCn1c(-c2cccnc2C(C)OC)c2c3cc(ccc31)N1CCOC(CC(NC(=O)C(C(C)C)N(C)C(=O)C3(F)CCN(C(=O)C#CC(C)(C)N(C)C)CC3)C(=O)N3CCCC(N3)C(=O)OCC(C)(C)C2)C1 is ___
A. 30

* * *

Property: viability, T/C; scope: individual compounds
# Tested on: 242566-281-R-J2-PDC complex spheroid viability
# EXPERIMENT_SUMMARY: Anticancer human tumor 242566-281-R-J2-PDC cell line growth inhibition [RAS];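 also: spheroids exposed to compound for 7 days before readout; 100% = DMSO vehicle control wells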
# REPORTED_CONDITIONS: second compound 0.0316 µM; first compound 0.1 µM; active compounds read low
Numeric answer only, unit % assumed.

Example compounds with recorded viability, T/C:
- COMPOUND: "C=CC(=O)Nc1cc(Nc2nccc(-c3cn(C)c4ccccc34)n2)c(OC)cc1N(C)CCN(C)C + C#Cc1c(F)ccc2cc(O)cc(-c3ncc4c(N5CC6CCC(C5)N6)nc(OCC56CCCN5CC(F)C6)nc4c3F)c12"
  NUMERIC_VALUE: 52.9
- COMPOUND: "NC1c2ccccc2OC12CCN(c1cnc3c(N4CCCc5ncccc54)n[nH]c3n1)CC2 (stereo not given) + C#Cc1c(F)ccc2cc(O)cc(-c3ncc4c(N5CC6CCC(C5)N6)nc(OCC56CCCN5CC(F)C6)nc4c3F)c12"
  NUMERIC_VALUE: 56.2
- COMPOUND: "CC(C)n1nc(-c2ccc3oc(N)nc3c2)c2c(N)ncnc21 + C=CC(=O)N1CCN(c2nc(OCC3CCCN3C)nc3c(F)c(-c4nc(N)cc(C)c4C(F)(F)F)c(Cl)cc23)C(C)C1"
  NUMERIC_VALUE: 54.6
- COMPOUND: "CC1(O)CCCC1n1c(=O)c(C(F)F)cc2cnc(NC3CCN(S(C)(=O)=O)CC3)nc21 (stereo not given) + C#Cc1c(F)ccc2cc(O)cc(-c3ncc4c(N5CC6CCC(C5)N6)nc(OCC56CCCN5CC(F)C6)nc4c3F)c12"
  NUMERIC_VALUE: 113
- COMPOUND: "CC(=O)OC12COC1CC(O)C1(C)C(=O)C(O)C3=C(C)C(OC(=O)C(O)C(NC(=O)OC(C)(C)C)c4ccccc4)CC(O)(C(OC(=O)c4ccccc4)C21)C3(C)C (stereo not given) + C=CC(=O)N1CCN(c2nc(OCC3CCCN3C)nc3c(F)c(-c4nc(N)cc(C)c4C(F)(F)F)c(Cl)cc23)C(C)C1"
  NUMERIC_VALUE: 51.9

Q. GET /values?readout=viability, T/C&item= C=CC(=O)N1CCN(c2nc(OCC3CCCN3C)nc3c(F)c(-c4nc(N)cc(C)c4C(F)(F)F)c(Cl)cc23)C(C)C1 (stereo not given) + C#Cc1c(F)ccc2cc(O)cc(-c3ncc4c(N5CC6CCC(C5)N6)nc(OCC56CCCN5CC(F)C6)nc4c3F)c12
A. 66.7

Q. What does the record list as viability, T/C for CC(Nc1ccc2c(c1)OCCn1cc(N3C(=O)OCC3C(F)F)nc1-2)C(N)=O (stereo not given) + C=CC(=O)N1CCN(c2nc(OCC3CCCN3C)nc3c(F)c(-c4nc(N)cc(C)c4C(F)(F)F)c(Cl)cc23)C(C)C1 ?
A. 102

Q. Param item = CCC(CC)c1cc(NC2CCC(N)C2)n2nccc2n1 (stereo not given) + C=CC(=O)N1CCN(c2nc(OCC3CCCN3C)nc3c(F)c(-c4nc(N)cc(C)c4C(F)(F)F)c(Cl)cc23)C(C)C1 ; retrieve measured viability, T/C.
A. 123

Q. Using the record for CC(C)NCC(C(=O)N1CCN(c2ncnc3c2C(C)CC3O)CC1)c1ccc(Cl)cc1 (stereo not given) + C#Cc1c(F)ccc2cc(O)cc(-c3ncc4c(N5CC6CCC(C5)N6)nc(OCC56CCCN5CC(F)C6)nc4c3F)c12 , report its viability, T/C.
A. 116

Q. Which measured viability, T/C value corresponds to CC(C)NCC(C(=O)N1CCN(c2ncnc3c2C(C)CC3O)CC1)c1ccc(Cl)cc1 (stereo not given) + C=CC(=O)N1CCN(c2nc(OCC3CCCN3C)nc3c(F)c(-c4nc(N)cc(C)c4C(F)(F)F)c(Cl)cc23)C(C)C1 ?
A. 117

Origin of the recorded values: PubChem BioAssay AID2060910
